- System: SK-MEL-5
- Method Summary: NCI tumour cell line growth inhibition, 48 h
The source made the active and inactive calls. No stated cut-off is given here; in the data, active = GI50 up to about 1.1 µM and inactive = higher.
Labels: active, inactive

>  <Molecule>
OC1CN(OC/C=C/c2ccccc2)CC(O)C1O (stereo not given)

>  <Assigned Label>
inactive

$$$$
>  <Molecule>
CCCCCCCCCC(=O)N[C@H]1CCc2cc(OC)c(OC)c(OC)c2-c2ccc(SC)c(=O)cc21

>  <Assigned Label>
active

$$$$
>  <Molecule>
COC(=O)C(/C(=N/NC(N)=O)C(=O)Nc1c(C)cccc1C(C)(C)C)c1nc2ccc(Cl)cc2nc1O (stereo not given)

>  <Assigned Label>
inactive

$$$$
>  <Molecule>
O=C(O)C(Oc1nc(S)nc(S)n1)(c1ccc(Cl)cc1)c1ccc(Cl)cc1

>  <Assigned Label>
inactive

$$$$
>  <Molecule>
CCOP(=O)(OCC)C1CCCOC1=O (stereo not given)

>  <Assigned Label>
inactive

$$$$
